# credit: patent US20250361230A1

biological target: LATS1 Kinase-NanoLuc fusion in HEK-293 cells (Homo sapiens); construct: host or cells: HEK-293; assay: NanoBRET target engagement assay in transfected HEK-293 cells, LATS1; assay type: cell-based; details: Table 28, NanoBRET, HEK-293 cells; read-out: LATS1 (Cellular) IC50
Sequence (O95835 whole entry, the tested form may be a part): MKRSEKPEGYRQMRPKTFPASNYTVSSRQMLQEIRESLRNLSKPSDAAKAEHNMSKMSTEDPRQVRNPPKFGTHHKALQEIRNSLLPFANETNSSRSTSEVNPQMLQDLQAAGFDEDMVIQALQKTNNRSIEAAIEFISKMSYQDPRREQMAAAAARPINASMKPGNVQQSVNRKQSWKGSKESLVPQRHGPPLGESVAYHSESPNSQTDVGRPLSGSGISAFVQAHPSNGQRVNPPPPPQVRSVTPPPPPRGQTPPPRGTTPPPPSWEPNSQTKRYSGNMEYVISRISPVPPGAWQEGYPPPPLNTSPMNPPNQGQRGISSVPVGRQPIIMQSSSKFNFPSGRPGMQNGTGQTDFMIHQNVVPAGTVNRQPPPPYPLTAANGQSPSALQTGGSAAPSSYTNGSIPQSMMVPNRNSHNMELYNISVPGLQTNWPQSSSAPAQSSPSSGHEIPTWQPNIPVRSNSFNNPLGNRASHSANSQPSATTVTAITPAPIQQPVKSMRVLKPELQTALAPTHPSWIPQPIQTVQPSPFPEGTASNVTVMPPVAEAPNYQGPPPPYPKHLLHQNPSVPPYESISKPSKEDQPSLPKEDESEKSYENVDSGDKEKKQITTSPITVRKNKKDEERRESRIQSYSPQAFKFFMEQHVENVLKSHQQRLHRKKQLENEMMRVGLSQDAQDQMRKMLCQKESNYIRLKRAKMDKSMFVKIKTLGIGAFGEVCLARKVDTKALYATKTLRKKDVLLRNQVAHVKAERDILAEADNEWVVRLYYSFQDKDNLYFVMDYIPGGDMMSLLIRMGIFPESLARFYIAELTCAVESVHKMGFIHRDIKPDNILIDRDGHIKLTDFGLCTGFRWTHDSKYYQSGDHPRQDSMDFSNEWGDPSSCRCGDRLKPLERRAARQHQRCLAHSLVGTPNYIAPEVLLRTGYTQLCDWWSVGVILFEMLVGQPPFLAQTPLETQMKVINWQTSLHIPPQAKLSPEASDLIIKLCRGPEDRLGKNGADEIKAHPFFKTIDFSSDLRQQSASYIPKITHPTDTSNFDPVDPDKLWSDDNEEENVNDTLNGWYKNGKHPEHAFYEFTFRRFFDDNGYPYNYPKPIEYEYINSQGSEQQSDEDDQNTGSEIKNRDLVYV
Consider the following molecules and their measured IC50 readings.
Readout Name: IC50 (µM)

1) NCc1ccc(-c2ccnc3[nH]cc(F)c23)cc1 :: 10.1
2) Cc1cccc(-c2c[nH]c3nccc(-c4ccc(CN)cc4)c23)c1 :: 5.47
3) NCc1ccc(-c2ccnc3[nH]cc(-c4cccnc4)c23)cc1 :: 11.9
4) Cc1cc(-c2ccnc3[nH]cc(F)c23)ccc1[C@@]1(O)[C@H](C)CN(C2CCC2)C[C@@H]1C :: 0.087
5) Cc1cc(-c2ccnc3[nH]cc(F)c23)cc(F)c1C1(O)CC2(CN(C3COC3)C2)C1 :: 0.0582
